molecular target: human ether-à-go-go-related gene (hERG) potassium channel (human); experiment: primary screen, population patch clamp on CHO cells stably expressing hERG; higher = less effect of the substance;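 further: peak tail current of the secondary pulse compared with the same well before compound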
Sequence (Q12809 whole entry, looked up): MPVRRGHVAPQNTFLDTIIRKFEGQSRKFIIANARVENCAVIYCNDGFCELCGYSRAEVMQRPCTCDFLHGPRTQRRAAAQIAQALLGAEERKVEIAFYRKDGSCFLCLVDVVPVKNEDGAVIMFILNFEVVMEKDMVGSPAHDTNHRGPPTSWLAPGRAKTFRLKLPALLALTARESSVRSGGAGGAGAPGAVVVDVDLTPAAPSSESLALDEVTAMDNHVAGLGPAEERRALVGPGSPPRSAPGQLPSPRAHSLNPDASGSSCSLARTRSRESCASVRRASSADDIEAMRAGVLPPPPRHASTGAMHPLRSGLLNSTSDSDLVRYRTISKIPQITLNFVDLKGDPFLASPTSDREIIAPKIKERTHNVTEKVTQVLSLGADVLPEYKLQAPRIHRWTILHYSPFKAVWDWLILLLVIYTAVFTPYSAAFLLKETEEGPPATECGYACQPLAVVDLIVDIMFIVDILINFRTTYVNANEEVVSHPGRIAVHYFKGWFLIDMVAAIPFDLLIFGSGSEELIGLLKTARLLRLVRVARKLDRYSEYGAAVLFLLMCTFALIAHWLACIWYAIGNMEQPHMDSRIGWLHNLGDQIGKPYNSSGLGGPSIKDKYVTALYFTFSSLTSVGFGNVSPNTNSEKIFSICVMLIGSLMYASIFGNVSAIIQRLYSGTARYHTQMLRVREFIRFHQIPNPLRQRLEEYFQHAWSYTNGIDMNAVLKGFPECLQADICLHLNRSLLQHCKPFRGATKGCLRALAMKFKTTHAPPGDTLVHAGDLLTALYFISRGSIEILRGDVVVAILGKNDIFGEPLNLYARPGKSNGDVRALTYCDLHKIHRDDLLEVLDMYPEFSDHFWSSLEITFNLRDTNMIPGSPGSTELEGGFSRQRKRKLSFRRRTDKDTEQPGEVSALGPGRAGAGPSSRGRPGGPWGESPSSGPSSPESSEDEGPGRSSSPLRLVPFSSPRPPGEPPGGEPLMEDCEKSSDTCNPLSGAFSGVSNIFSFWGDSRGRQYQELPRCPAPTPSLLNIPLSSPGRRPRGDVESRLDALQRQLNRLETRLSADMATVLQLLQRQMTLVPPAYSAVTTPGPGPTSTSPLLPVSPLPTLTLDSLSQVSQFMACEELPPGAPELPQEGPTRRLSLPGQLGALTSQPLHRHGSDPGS
The campaign covered roughly 310,000 compounds. About 14,000 (4.5%) showed an effect of 50% or more. Effects have a minus sign here. The full list was thinned out, with strong results kept by preference.
Readout Name: hERG current change (%, negative = inhibition) at 10uM (%)
A number alone suffices; assume %.

Worked cases, answers included:
O=C(N/N=C\c1cn[nH]c1-c1ccccc1)c1ccc([N+](=O)[O-])cc1 = -64.9
O=C(CNC(=O)c1ccc(F)cc1)N/N=C/c1cn[nH]c1-c1ccccc1 = -18.1
COc1ccc(-c2[nH]ncc2/C=N/NC(=O)c2cccc([N+](=O)[O-])c2)cc1OC = -62.1
O=C(N/N=C/c1cn[nH]c1-c1ccc(Cl)cc1)c1ccc([N+](=O)[O-])cc1 = -51.5

# ---- query compound ----
input: Looking for the measured hERG current change (%, negative = inhibition) at 10uM of O=S(=O)(c1cccc2nonc12)N1CCN(c2ccccc2F)CC1 , can you help?
output: 4.42

Origin of the recorded values: paper PMC4336329
